biological target: E. coli DNA gyrase (Escherichia coli, UniProt P0AES4+P0AES6); construct: purchased John Innes Enterprises Ltd. (John Innes Centre, UK); test: DNA gyrase inhibition assay (supercoiling); assay type: biochemical; conditions: E. coli DNA gyrase supercoiling, visual inspection of gels; read-out: DNA Gyrase IC50 (converted)
# reported IC50; entries follow

[[record]]
compound = "COc1ccc2nccc(-n3cc4c(n3)CCC(N(Cc3ccccc3)Cc3ccc5c(c3)NC(=O)CS5)C4)c2n1 (centres unmarked)"
value_observed = "3550 nM"


**Query** Query the reported IC50 for E. coli DNA gyrase (Escherichia coli, UniProt P0AES4+P0AES6); item: O=C1CSc2ccc(C(=O)NC3CCc4nn(-c5cccc6ccccc56)cc4C3)cc2N1 (centres unmarked)
**Result** 4400 nM

**Query** Note, next up: COc1ccc2nccc(-n3cc4c(n3)CCC(NC(=O)c3cc5c(cc3Cl)SCC(=O)N5)C4)c2n1 (centres unmarked)
**Result** 230 nM

**Query** Note, next up: COc1ccc2nccc(-n3cc4c(n3)CCC(NCCCc3ccc(C)cc3)C4)c2n1 (centres unmarked)
**Result** 7020 nM

**Query** Note, next up: COc1ccc2nccc(-n3cc4c(n3)CCC(NCc3cc5c(cc3Cl)OCCO5)C4)c2n1 (centres unmarked)
**Result** 1050 nM

* * *

molecular target: E. coli DNA gyrase (Escherichia coli, UniProt P0AES4+P0AES6); construct: purchased John Innes Enterprises Ltd. (John Innes Centre, UK); assay: DNA gyrase inhibition assay (supercoiling); assay type: biochemical; settings: E. coli DNA gyrase supercoiling, visual inspection of gels; read-out: DNA Gyrase IC50 (converted)
# reported IC50; entries follow
Only the number, expressed in µM, is required.

Example results:
[[record]]
compound = "O=C1CSc2cc(F)c(C(=O)NC3CCc4nn(-c5cccc6ccccc56)cc4C3)cc2N1 (centres unmarked)"
readout_name = "IC50"
measurement_units = "µM"
value_observed = 4.23

[[record]]
compound = "COc1ccc2nccc(-n3cc4c(n3)CCC(NCCCc3ccccc3)C4)c2n1 (centres unmarked)"
readout_name = "IC50"
measurement_units = "µM"
value_observed = 1.93

[[record]]
compound = "CCN(CC)c1ccc(CNC2CCc3nn(-c4ccnc5ccc(OC)nc45)cc3C2)cc1 (centres unmarked)"
readout_name = "IC50"
measurement_units = "µM"
value_observed = 4.38

[[record]]
compound = "COc1ccc2nccc(-n3cc4c(n3)CCC(NCc3cc5c(cc3Cl)OCCO5)C4)c2c1 (centres unmarked)"
readout_name = "IC50"
measurement_units = "µM"
value_observed = 4.19

[[record]]
compound = "COc1ccc2nccc(-n3cc4c(n3)CCC(NCc3ccc(N5CCCC5)cc3)C4)c2n1 (centres unmarked)"
readout_name = "IC50"
measurement_units = "µM"
value_observed = 4.4


**Query** State the recorded IC50 for this entry: COc1ccc2nccc(-n3cc4c(n3)CCC(N(CC(=O)O)Cc3ccc5c(c3)NC(=O)CS5)C4)c2n1 (centres unmarked)
**Result** 1.88

**Query** Note, next up: O=C1CSc2ccc(C(=O)NC3CCc4nn(-c5cccc6cccnc56)cc4C3)cc2N1 (centres unmarked)
**Result** 4.39

* * *

Target: E. coli DNA gyrase (Escherichia coli, UniProt P0AES4+P0AES6)
Construct: purchased John Innes Enterprises Ltd. (John Innes Centre, UK)
Assay: DNA gyrase inhibition assay (supercoiling)
Format: biochemical
Settings: E. coli DNA gyrase supercoiling, visual inspection of gels; read-out: DNA Gyrase IC50 (converted)
Method: Inhibition of the supercoiling activity of E. coli DNA gyrase was determined using enzymes, buffers and substrates received from John Innes Enterprises Ltd. (John Innes Centre, UK). The reactions were performed according to the manufacturer's directions, with the following modifications. […]
# reported IC50; entries follow

Example results:
[[record]]
compound = "COc1ccc2nccc(-n3cc4c(n3)CCC(NCc3cc(F)c5c(c3)OCCO5)C4)c2c1 (stereo not shown) [Example 100]"
readout_name = "IC50"
value_observed = "1.09 µM"

[[record]]
compound = "COc1ccc2nccc(-n3cc4c(n3)CCC(N(CC(=O)OC(C)(C)C)Cc3ccc5c(c3)NC(=O)CS5)C4)c2n1 (stereo not shown) [Example 67]"
readout_name = "IC50"
value_observed = "> 13.6 µM"

[[record]]
compound = "COc1ccc2nccc(-n3cc4c(n3)CCC(NCc3ccc(N(C)C)c(C#N)c3F)C4)c2n1 (stereo not shown) [Example 35]"
readout_name = "IC50"
value_observed = "4.24 µM"


The record that follows has no IC50 shown yet.
**Query** State the recorded IC50 for this entry: COc1ccc2nccc(-n3cc4c(n3)CCN(CC(=O)c3ccc5c(c3)NC(=O)CO5)C4)c2c1 [Example 64]
**Result** > 8.52 µM
